assay: qHTS for inhibitors of binding or entry into cells for Marburg Virus; settings: Marburg virus pseudotyped entry inhibition, cell reporter; series mostly up to 37.8 µM
Among all 300,000 compounds or so, about 5,400 (1.8%) were called active. Another 28% or so got no clear call; they are omitted. Calls come from the whole dose curve; tested in HEK293 cells. The entries come from a sample that favours actives as a whole.
Classes used: y = active, n = inactive

Molecule	Group
COc1ccccc1NC(=O)N1CCCC1C(=O)NCc1cccs1 (configuration not stated)	n
COc1ccc(S(=O)(=O)N2CCC(C(=O)NCc3ccco3)CC2)cc1C	n
O=C(CN1CCN(c2ccccn2)CC1)Nc1ccc(Br)cc1	n
O=C(Cc1ccc(Br)cc1)N1CCN(c2ccccn2)CC1	n
COC(=O)CC=C[C@@H](C)[C@H](NC(=O)OCC(Cl)(Cl)Cl)c1ccc2ccccc2c1	n
Cc1c(Cl)cccc1NC(=S)NCC(O)c1ccccc1 (configuration not stated)	n
CC(=O)Nc1ccc(S(=O)(=O)Nc2cc(C)cn(Cc3ccc(C)cc3)c2=O)cc1	n
CCCN(CC1CC1)C(=O)COC(=O)c1ccc(C)cc1O	n
CCOc1ccccc1-c1nc(CN2CCC(C(=O)N3CCOCC3)CC2)c(C)o1	n
CC1CCN(C(=O)COC(=O)CCC(=O)c2cccs2)CC1	n
CCS(=O)(=O)Nc1ccc(C(=O)NCCSc2ccccc2)cc1	n
Cc1ccccc1N1CC(C(=O)Nc2nnc(SCCC3OCCO3)s2)CC1=O (configuration not stated)	n
Cc1ccc(CN2CCNC(=O)C2CC(=O)NCc2csc(C(C)C)n2)cc1 (configuration not stated)	n
COc1cc(C)ccc1OCC(=O)OCC(=O)c1ccc[nH]1	n
CC(C)CC1C(=O)N(Cc2cn(Cc3ccco3)nn2)CCS(=O)(=O)N1Cc1ccc(-c2ccc(Cl)c(Cl)c2)cc1 (configuration not stated)	y
COc1ccccc1S(=O)(=O)c1c(C)cc(C)[nH]c1=O	n
Cc1ccc(CNC(=O)C(=O)c2cn(CC(=O)N3CCCC3)c3ccccc23)cc1	n
CCOc1ccc(C(C)=O)cc1COC(=O)CNC(=O)c1cccs1	n
Cc1cc(C)c(S(=O)(=O)N(C)CC(=O)NCC2CCCO2)c(C)c1 (configuration not stated)	n
CCN1CCN(C(=O)c2ccc(CN(c3ccc(C)c(C)c3)S(C)(=O)=O)cc2)CC1	n
COc1ccc(CCNC(=O)COC(=O)c2ncc(Cl)c(Cl)c2Cl)cc1OC	n
CCOC(=O)c1cc(S(=O)(=O)NCCc2ccc(OC)c(OC)c2)cn1C	n
